Test system: M14 melanoma
test-summary: NCI-60 one-dose screen, 48 h (100 = growth as untreated, 0 = no growth, -100 = all killed)
experimental-conditions: 10 µM unless noted
About 83,000 compounds went through this panel and 20% of them were active in at least one assay; those are over-represented in the sample as a whole.
quantity-measured: growth (%)

[[record]]
compound = "CCN(CC)CCCOc1ccc2ncnc(Nc3ccc(Oc4cccc(C(F)(F)F)c4)c(Cl)c3)c2c1"
reported_value = -72

[[record]]
compound = "COc1ccc(/C=C2\\CN(C(=O)C(Cl)Cl)C/C(=C\\c3ccc(OC)cc3)C2=O)cc1"
reported_value = -39

[[record]]
compound = "COc1ccc(-c2nc3c(N)c(CO)cnc3s2)cc1"
reported_value = 99.4

[[record]]
compound = "Cc1ccc(-c2nc(SCc3nc4cc(Cl)c(Cl)cc4[nH]3)[nH]c(=O)c2C#N)cc1"
reported_value = 91.2

[[record]]
compound = "Fc1ccc(Cn2cc(CSc3nc4ccccc4o3)nn2)cc1"
reported_value = 97

[[record]]
compound = "CCOc1c(OC)cc2c(c1O)C(=O)N[C@@H]1[C@@H](O)[C@@H](O)[C@H](O)C[C@@H]21"
reported_value = 105

[[record]]
compound = "O=C(C1=Cc2cc3ccccc3n2Cc2cnnn21)c1ccc(O)cc1"
reported_value = 24.9

[[record]]
compound = "COCCn1cc(-c2csc(-c3c[nH]c4ccc(Br)cc34)n2)c2cccnc21"
reported_value = 14.3

[[record]]
compound = "Cc1ccc(-c2nc3nc(-c4ccccc4)nc(N4CCCN(S(C)(=O)=O)CC4)c3o2)cc1"
reported_value = 70.9

[[record]]
compound = "C=Cc1cnc(Nc2ccc(OC)cc2)nc1NCCCNC(=O)C1CCC1"
reported_value = 46.8

[[record]]
compound = "O=S1(=O)C=C(c2ccccc2)C(c2ccccc2)=C1"
reported_value = 12.1

[[record]]
compound = "N#C/C(=C\\c1ccc(-c2cccc(C(F)(F)F)c2)o1)c1ccccc1"
reported_value = 84.5

[[record]]
compound = "C=C1C(=O)O[C@H]2[C@H]1CC/C(COC(=O)CSCSCC(=O)OC/C1=C/CC[C@@]3(C)O[C@H]3[C@H]3OC(=O)C(=C)[C@@H]3CC1)=C\\CC[C@@]1(C)O[C@@H]21"
reported_value = 4.26

[[record]]
compound = "Cc1ccc(C(=O)c2ccc(CC(=O)NN3C(=O)c4ccccc4C3=O)n2C)cc1"
reported_value = 104

[[record]]
compound = "Cc1[nH]c(C2CC(c3ccc(C(F)(F)F)c(F)c3)=NN2c2ccccc2)c(C)c1C(=O)NCC(F)(F)F (centres undefined)"
reported_value = 94.8

[[record]]
compound = "CC/C=C\\CCC/C=C1/C(=O)C=C[C@@H]1C/C=C\\CCCC(=O)OC"
reported_value = 1.66

[[record]]
compound = "CCOC(=O)C1=C(C)/C(=C\\c2[nH]c(C)c(C(=O)OCC)c2C)N=C1C"
reported_value = 95.9

[[record]]
compound = "COC(=O)CC[C@@H]1O[C@@H](c2ccc(F)cc2)[C@@H](O)[C@H]1O"
reported_value = 92.9

[[record]]
compound = "Cc1nc2c(c(=O)[nH]1)C(c1ccccc1)c1ccc3ccccc3c1O2 (centres undefined)"
reported_value = 22.2


====

System: CCRF-CEM leukemia
test-summary: NCI-60 one-dose screen, 48 h
experimental-conditions: 10 µM unless noted
Compounds without any hit were thinned out: in the full panel of roughly 83,000, 20% have a hit. Activity calls are given as the source filed them. Rule for the calls: active = growth percent below 10; inactive = the rest.
Outcomes: active, inactive

[[record]]
compound = "CC(=O)c1ccc(Nc2nccc(-c3ccc4ccccc4c3)n2)cc1"
class = "inactive"

[[record]]
compound = "C#CC#CC#CC#CC#CC#CC#CC#CCC1OC[C@H](COC(=O)O[C@@H](C(=O)O[C@H]2C[C@@]3(O)[C@@H](OC(=O)c4ccccc4)[C@@H]4[C@]5(OC(C)=O)CO[C@@H]5C[C@H](O)[C@@]4(C)C(=O)[C@H](OC(C)=O)C(=C2C)C3(C)C)[C@@H](NC(=O)c2ccccc2)c2ccccc2)O1 (stereo partly specified)"
class = "inactive"

[[record]]
compound = "NC1=Nc2cc(OCCCCN3Cc4ccccc4C3)c(OCC3CC3)cc2C12CCCC2"
class = "inactive"

[[record]]
compound = "CNC1=CC(=O)c2c(C(=O)OC)c(C)[n+]([O-])c(C)c2C1=O"
class = "inactive"

[[record]]
compound = "COc1cnc2c(c1)C(=O)c1c-2n(CCCCl)c(=O)c2ccncc12"
class = "inactive"

[[record]]
compound = "CC(C)=CCNc1ncnc2c1ncn2C1OC(CO)C(O)C1O (stereo unspecified)"
class = "active"

[[record]]
compound = "COc1ccc(C#Cc2ccc(=O)oc2-c2cc(OC)c(OC)c(OC)c2)cc1O"
class = "inactive"

[[record]]
compound = "O=c1nc(-c2ccccc2)c2cc(-c3ccc(C(F)(F)F)nc3)ccc2[nH]1"
class = "inactive"

[[record]]
compound = "C=CC(=O)Nc1ccc(Nc2nccc(-c3ccc(N4CCCC4)c(C#N)c3)n2)cc1"
class = "inactive"

[[record]]
compound = "Cc1ccc2c(-n3nc(C#N)c(C#N)c3N)cc(=O)[nH]c2c1"
class = "inactive"

[[record]]
compound = "O=C(O)c1cn(C2CC2)c2cc(N3CCN(C(=O)Nc4nc(-c5ccc(Br)cc5)cs4)CC3)c(F)cc2c1=O"
class = "active"

[[record]]
compound = "Cn1c(=O)c2[nH]c(SCC(=O)Nc3ccc(C(=O)/C=C/c4ccccc4Cl)cc3)nc2n(C)c1=O"
class = "inactive"

[[record]]
compound = "c1ccc(CCNc2c3ccccc3nc3ccccc23)cc1"
class = "inactive"

[[record]]
compound = "COc1ccc(C2=CN3CC=CC3CC2=O)cc1 (stereo unspecified)"
class = "inactive"

[[record]]
compound = "COc1ccc(N2CCC(=S)NC2=S)cc1"
class = "inactive"

[[record]]
compound = "Cc1cccc[n+]1C1c2ccccc2-c2ccccc21"
class = "inactive"

[[record]]
compound = "Cc1ccc2nc(-c3ccc(C(=O)NNC(=S)Nc4ccccc4)cc3)[nH]c2c1"
class = "inactive"

[[record]]
compound = "C=C(C)[C@@H]1CCC[C@]2(C(=O)O)CC[C@]3(C)[C@@H](CC[C@@H]4[C@@]5(C)C/C(=C/c6ccncc6)C(=O)C(C)(C)[C@@H]5CC[C@]43C)[C@@H]12"
class = "active"

[[record]]
compound = "O=C(N/N=C\\c1ccccc1S(=O)(=O)O)N/N=C/c1ccccc1S(=O)(=O)O"
class = "inactive"

[[record]]
compound = "COC(=O)c1cc(Br)ccc1O"
class = "inactive"

[[record]]
compound = "CCN1C(=O)N(CC)C2C1NC(=S)N2/N=C/c1ccc(C(F)(F)F)cc1 (stereo unspecified)"
class = "inactive"

[[record]]
compound = "C#CCNC(=O)[C@]1(C)CCC[C@@]2(C)[C@H]1CC=C1C=C(C(C)C)CC[C@@H]12"
class = "inactive"

[[record]]
compound = "NC1(CO)COC(c2ccccc2)OC1 (stereo unspecified)"
class = "inactive"

[[record]]
compound = "Cc1ccc(/C=C/C(=O)c2ccc(-n3cc(CN4CCN(c5cc6c(cc5F)c(=O)c(C(=O)O)cn6C5CC5)CC4)nn3)cc2)cc1"
class = "inactive"

[[record]]
compound = "CN1CCN(CC(=O)Nc2ccc3ncnc(Nc4ccc(Oc5cccc(C(F)(F)F)c5)c(Cl)c4)c3c2)CC1"
class = "active"

[[record]]
compound = "CN(C)c1ccc(-c2ccc3c(c2)c(-c2ccccc2)nc(=O)n3C)cn1"
class = "inactive"

[[record]]
compound = "CCOC(=O)c1c(C)nc2c(c1N)/C(=C/c1ccc(OC)cc1)C(=O)N2Cc1ccccc1"
class = "inactive"

[[record]]
compound = "O=C1/C(=C/c2ccccc2F)CN(C(=O)C(Cl)Cl)C/C1=C\\c1ccccc1F"
class = "active"

[[record]]
compound = "Nc1c(C(=O)Nc2cccc(Cl)c2)sc2nc3c(cc12)CCCC3"
class = "inactive"

[[record]]
compound = "CCN1CCN(CCNc2nccc(-c3c(-c4ccc(F)c(OC)c4)nc4sccn34)n2)S1(=O)=O"
class = "inactive"

[[record]]
compound = "Cc1ccc(-c2csc(NC(=O)c3ccccc3CN3C(=O)c4ccccc4C3=O)n2)cc1"
class = "inactive"

[[record]]
compound = "CCN1C(=O)N(CC)C2C1NN=c1s/c(=C3\\C(=O)N(CC(C)C)c4ccccc43)c(=O)n12 (stereo unspecified)"
class = "inactive"

[[record]]
compound = "C=C(C)[C@@H]1CC[C@]2(C(=O)N3CCN(C)CC3)CC[C@]3(C)[C@H](CC[C@@H]4[C@@]5(C)CC[C@H](OC(=O)c6ccccc6C(=O)O)C(C)(C)[C@@H]5CC[C@]43C)[C@@H]12"
class = "inactive"

[[record]]
compound = "C=C(C)[C@@H]1CC[C@]2(C(N)=O)CC[C@]3(C)[C@H](CC[C@@H]4[C@@]5(C)CC[C@H](OCCC#N)C(C)(C)[C@@H]5CC[C@]43C)[C@@H]12"
class = "inactive"

[[record]]
compound = "O=C1c2ccccc2C(=O)c2c1cc1c(c2[N+](=O)[O-])OCO1"
class = "inactive"

[[record]]
compound = "Cc1ccccc1Nc1cc(O)c2c(=O)cc(-c3ccccc3)oc2c1"
class = "inactive"

